The following molecules are listed with their measured pKd values.
TARGET_OF_ASSAY: JAK2 (JH1domain-catalytic, Y1007F,Y1008F) kinase (Homo sapiens, UniProt O60674, Y1007F/Y1008F)
Construct: JAK2 (JH1domain-catalytic, Y1007F,Y1008F) kinase was expressed as N-terminal fusion
Sequence (O60674 849-1124 Y1007F/Y1008F limits assumed): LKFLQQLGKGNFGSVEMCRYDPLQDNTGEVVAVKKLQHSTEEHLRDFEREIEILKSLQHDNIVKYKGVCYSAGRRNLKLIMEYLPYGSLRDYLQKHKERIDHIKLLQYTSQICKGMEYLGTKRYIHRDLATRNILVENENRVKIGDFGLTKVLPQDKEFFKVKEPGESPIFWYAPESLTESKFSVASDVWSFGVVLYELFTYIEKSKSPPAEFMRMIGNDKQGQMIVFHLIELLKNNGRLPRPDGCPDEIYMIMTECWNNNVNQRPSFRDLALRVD
EXPERIMENTAL_DETAILS: JAK2 JH1 Domain Binding Assay
TEST_CONTEXT: qPCR readout
pKd: −log10 of the molar value.

Record excerpt, results attached:
stdin: Quick one: pKd of Cn1c(Nc2cc(C3CC3)cn(C3CC4(COC4)C3)c2=O)nc2ncc(Oc3cnn4ccncc34)c(Cl)c21 ?
stdout: > 8.00

stdin: Would you mind doing CNc1nccn2ncc(Oc3cnc4nc(Nc5cc(C(F)(F)F)cn(C(C)C)c5=O)n(C)c4c3Cl)c12 as well?
stdout: > 8.00

stdin: Would you mind doing Cn1cc(C(F)(F)F)cc(Nc2nc3ncc(Oc4cnn5ccc(N6CCOCC6)cc45)c(C#N)c3n2C)c1=O as well?
stdout: > 8.00

stdin: Would you mind doing COCCN1CCC(n2nc(Nc3nc4ncc(Oc5cnn6ccncc56)c(C(F)F)c4n3C)cc2C(C)(C)C)C1 (stereo in doubt) as well?
stdout: 7.30 to 8.00

stdin: Would you mind doing CN1CCN(Cc2ccc(Nc3nc4ncc(Oc5cnn6ccncc56)c(Cl)c4n3C)cc2C(F)(F)F)CC1 as well?
stdout: > 8.00

More entries:
stdin: Quick one: pKd of CNc1nccn2ncc(Oc3cnc4nc(Nc5cc(C(F)(F)F)cn([C@@H]6CCOC6)c5=O)n(C)c4c3Cl)c12 (single isomer, unassigned) ?
stdout: > 8.00

----------
TARGET_OF_ASSAY: JAK2 (JH1domain-catalytic, Y1007F,Y1008F) kinase (Homo sapiens, UniProt O60674, Y1007F/Y1008F)
Construct: JAK2 (JH1domain-catalytic, Y1007F,Y1008F) kinase was expressed as N-terminal fusion
EXPERIMENTAL_DETAILS: JAK2 JH1 Domain Binding Assay
TEST_CONTEXT: qPCR readout
pKd: −log10 of the molar value.
The following compounds are listed with their measured pKd values.

Record excerpt, results attached:
stdin: Quick one: pKd of Cn1c(Nc2cc(C(F)(F)F)cn(CCO)c2=O)nc2ncc(Oc3cnn4ccc(N5CCOCC5)cc34)c(Cl)c21 ?
stdout: > 8.00

stdin: Would you mind doing CNc1nccn2ncc(Oc3cnc4nc(Nc5cc(O[C@H]6CCN(C)C6)cc(C(F)(F)F)c5)n(C)c4c3Cl)c12 as well?
stdout: 7.30 to 8.00

stdin: Would you mind doing CN1CCC[C@@H]1c1cc(Nc2nc3ncc(Oc4cnn5ccncc45)c(Cl)c3n2C)cc(C(F)(F)F)c1 (single isomer, unassigned) as well?
stdout: > 8.00

More entries:
stdin: Quick one: pKd of Cn1cc(C(F)(F)F)cc(Nc2nc3ncc(Oc4cnc5[nH]cc(F)c5c4)c(C#N)c3n2C)c1=O ?
stdout: 7.30 to 8.00

stdin: Would you mind doing CNc1cn2ncc(Oc3cnc4nc(Nc5cc([C@@H]6CCCN6C)cc(C(F)(F)F)c5)n(C)c4c3Cl)c2cn1 (single isomer, unassigned) as well?
stdout: 6.00 to 7.30

stdin: Would you mind doing CC(=O)N1CC(n2nc(Nc3nc4ncc(Oc5cnn6ccncc56)c(Cl)c4n3C)cc2C(C)(C)C)C1 as well?
stdout: > 8.00
